# MEASURED TARGET: AgNbp2
# PROCEDURE TEXT: SPOT peptide array binding signal intensity (averaged, normalized) (arbitrary units (background-subtracted, floor 0; scale differs between SH3 domains)); higher = stronger binding of the SH3 domain to the peptide
# SPOT peptide array binding signal intensity annotations
Please give only the number in your answer, with no unit.

Record excerpt, results attached:
STKKPRPPVKSKPKH = 9
SRSKPLPLTPNSKYN = 8.5
RPKRRAPPPVPKKPS = 4930
KTKQQKPAIPQKKSF = 14

Tell me the measured SPOT peptide array binding signal intensity of `LSKRLPLRFPEHTSS` , please. 10
